# assay-target: PRMT5-MEP50 enzyme complex (Homo sapiens (Human))
# method-notes: PRMT5 enzyme activity in vitro assay (methylation of histone H4R3, ELISA absorbance at 450 nm)
# run-conditions: SAM, histone H4 peptide, room temperature 2 hours, 8 points from 10 μM to 0.128 nM
pIC50: −log10 of the molar value.
# pIC50 annotations

compound=CN1CCC(Oc2ccc3c(c2)N(C)CCN(C[C@H](O)CN2CCc4ccccc4C2)C3=O)CC1 reported_result="6.00 to 7.00"
compound=O=C1c2ccc(OC3CN(C(=O)C4CC4)C3)cc2OCCN1C[C@H](O)CN1CCc2ccccc2C1 reported_result="7.00 to 9.00"
compound="CC(c1ccc2c(c1)OCCN(C[C@H](O)CN1CCc3ccccc3C1)C2=O)N1CCOCC1 (stereo partly shown)" reported_result="6.00 to 7.00"

Next up:
Value wanted: pIC50 (PRMT5-MEP50 enzyme complex (Homo sapiens (Human))) of entry O=C(c1ccc2c(c1)OCCN(C[C@H](O)CN1CCc3ccccc3C1)C2=O)C1CC1
7.00 to 9.00

---

# assay-target: PRMT5-MEP50 enzyme complex (Homo sapiens (Human))
# method-notes: PRMT5 enzyme activity in vitro assay (methylation of histone H4R3, ELISA absorbance at 450 nm)
# run-conditions: SAM, histone H4 peptide, room temperature 2 hours, 8 points from 10 μM to 0.128 nM
experimental-readout: IC50

Some solved entries appear below for comparison.
compound=O=C1c2ccc(Cl)cc2CCCN1C[C@H](O)CN1CCc2ccccc2C1 reported_result="1 to 100 nM"
compound=CN1CCN(Cc2ccc3c(c2)OCCN(C[C@H](O)CN2CCc4ccccc4C2)C3=O)CC1 reported_result="1 to 100 nM"
compound=Cn1cc(-c2ccc3c(c2)OCCN(C[C@H](O)CN2CCc4ccccc4C2)C3=O)cn1 reported_result="100 to 1000 nM"
compound="CC(O)C#Cc1ccc2c(c1)OCCN(C[C@H](O)CN1CCc3ccccc3C1)C2=O (stereo partly shown)" reported_result="1 to 100 nM"
compound=CC(C)N1CCC[C@H]1COc1ccc2c(c1)OCCN(C[C@H](O)CN1CCc3ccccc3C1)C2=O reported_result="100 to 1000 nM"
compound="O=C(c1ccc2c(c1)OCCN(C[C@H](O)CN1CCc3ccccc3C1)C2=O)N1CC2CCCC2C1 (stereo partly shown)" reported_result="100 to 1000 nM"

I have this compound here, O=C1c2ccc(CN3CCCC3)cc2OCCN1C[C@H](O)CN1CCc2ccccc2C1 , and I need its recorded IC50.
1 to 100 nM

Again, but for CN1CCN(C[C@H](O)CN2CCc3ccccc3C2)C(=O)c2ccc(CC3CCCCC3)cc21
100 to 1000 nM

Again, but for O=C1c2ccc(CN3CCC(F)C3)cc2OCCN1C[C@H](O)CN1CCc2ccccc2C1 (stereo partly shown)
100 to 1000 nM

---

# IC50 annotations
# assay-target: PRMT5-MEP50 enzyme complex (Homo sapiens (Human))
# method-notes: PRMT5 enzyme activity in vitro assay (methylation of histone H4R3, ELISA absorbance at 450 nm)
# run-conditions: SAM, histone H4 peptide, room temperature 2 hours, 8 points from 10 μM to 0.128 nM

Some solved entries appear below for comparison.
molecule=O=C1c2ccc(OC3CCOCC3)cc2OCCN1C[C@H](O)CN1CCc2ccccc2C1 assay_target="PRMT5-MEP50 enzyme complex (Homo sapiens (Human))" reported_result="0.001 to 0.1 µM"
molecule="CN1CCN(C[C@H](O)CN2CCc3ccccc3C2)C(=O)c2ccc(C3=CCC(C(F)(F)F)CC3)cc21 (some centres unmarked)" assay_target="PRMT5-MEP50 enzyme complex (Homo sapiens (Human))" reported_result="0.1 to 1 µM"
molecule=O=C1c2ccc(OCc3ccncc3F)cc2OCCN1C[C@H](O)CN1CCc2ccccc2C1 assay_target="PRMT5-MEP50 enzyme complex (Homo sapiens (Human))" reported_result="0.001 to 0.1 µM"
molecule=CCN1CC(COc2ccc3c(c2)OCCN(C[C@H](O)CN2CCc4ccccc4C2)C3=O)C1 assay_target="PRMT5-MEP50 enzyme complex (Homo sapiens (Human))" reported_result="0.1 to 1 µM"
molecule="CN1CCCC(Oc2ccc3c(c2)OCCN(C[C@H](O)CN2CCc4ccccc4C2)C3=O)C1 (some centres unmarked)" assay_target="PRMT5-MEP50 enzyme complex (Homo sapiens (Human))" reported_result="0.1 to 1 µM"
molecule="O=C1c2ccc(CN3CCCC(O)C3)cc2OCCN1C[C@H](O)CN1CCc2ccccc2C1 (some centres unmarked)" assay_target="PRMT5-MEP50 enzyme complex (Homo sapiens (Human))" reported_result="0.001 to 0.1 µM"
molecule=O=C1c2ccc(Br)cc2CCCN1C[C@H](O)CN1CCc2ccccc2C1 assay_target="PRMT5-MEP50 enzyme complex (Homo sapiens (Human))" reported_result="0.001 to 0.1 µM"

Next up:
I have this molecule here, O=C(c1ccc2c(c1)OCCN(C[C@H](O)CN1CCc3ccccc3C1)C2=O)N1CCOC(F)(F)C1 , and I need its recorded IC50.
0.1 to 1 µM

---

# assay-target: PRMT5-MEP50 enzyme complex (Homo sapiens (Human), UniProt O14744)
# Sequence (O14744 2-637): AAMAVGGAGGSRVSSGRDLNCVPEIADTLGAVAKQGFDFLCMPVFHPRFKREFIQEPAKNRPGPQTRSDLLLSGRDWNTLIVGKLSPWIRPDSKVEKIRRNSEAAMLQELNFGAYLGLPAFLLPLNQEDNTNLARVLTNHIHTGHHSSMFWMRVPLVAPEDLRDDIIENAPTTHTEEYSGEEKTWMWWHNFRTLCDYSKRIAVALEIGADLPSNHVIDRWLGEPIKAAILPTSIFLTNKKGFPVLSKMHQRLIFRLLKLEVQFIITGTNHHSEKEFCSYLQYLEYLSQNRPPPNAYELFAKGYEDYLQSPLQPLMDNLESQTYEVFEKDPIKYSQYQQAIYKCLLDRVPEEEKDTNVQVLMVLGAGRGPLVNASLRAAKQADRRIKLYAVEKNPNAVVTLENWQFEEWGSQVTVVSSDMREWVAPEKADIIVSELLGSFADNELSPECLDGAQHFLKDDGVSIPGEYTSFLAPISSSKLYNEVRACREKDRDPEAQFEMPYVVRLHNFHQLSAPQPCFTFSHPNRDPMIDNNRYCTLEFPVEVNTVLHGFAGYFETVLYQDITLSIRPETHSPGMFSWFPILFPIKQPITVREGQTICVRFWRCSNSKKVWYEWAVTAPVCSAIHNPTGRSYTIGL
# Sequence (Q9BQA1 2-342 partner): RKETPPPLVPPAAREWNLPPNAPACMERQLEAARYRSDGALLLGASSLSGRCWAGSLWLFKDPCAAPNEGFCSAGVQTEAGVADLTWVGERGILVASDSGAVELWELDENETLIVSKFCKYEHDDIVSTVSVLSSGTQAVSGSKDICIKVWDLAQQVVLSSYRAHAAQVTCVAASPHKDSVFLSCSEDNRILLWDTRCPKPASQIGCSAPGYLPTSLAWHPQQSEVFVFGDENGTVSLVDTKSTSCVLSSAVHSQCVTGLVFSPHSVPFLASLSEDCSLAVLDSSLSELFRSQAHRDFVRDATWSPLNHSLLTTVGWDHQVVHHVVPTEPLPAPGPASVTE
# method-notes: PRMT5 enzyme activity in vitro assay (methylation of histone H4R3, ELISA absorbance at 450 nm)
# run-conditions: SAM, histone H4 peptide, room temperature 2 hours, 8 points from 10 μM to 0.128 nM
pIC50: −log10 of the molar value.
experimental-readout: pIC50

Some solved entries appear below for comparison.
compound=COCCN1CCC(Oc2ccc3c(c2)OCCN(C[C@H](O)CN2CCc4ccccc4C2)C3=O)CC1 experimental_readout=pIC50 reported_result="7.00 to 9.00"
compound=COC1CCN(Cc2ccc3c(c2)OCCN(C[C@H](O)CN2CCc4ccccc4C2)C3=O)CC1 experimental_readout=pIC50 reported_result="6.00 to 7.00"
compound="O=C1CCC(Oc2ccc3c(c2)OCCN(C[C@H](O)CN2CCc4ccccc4C2)C3=O)CN1 (stereo partly shown)" experimental_readout=pIC50 reported_result="6.00 to 7.00"
compound="CN(CCF)C1CCC(Oc2ccc3c(c2)OCCN(C[C@H](O)CN2CCc4ccccc4C2)C3=O)CC1 (stereo partly shown)" experimental_readout=pIC50 reported_result="7.00 to 9.00"
compound="O=C1c2ccc(CN3CCC(O)C3)cc2OCCN1C[C@H](O)CN1CCc2ccccc2C1 (stereo partly shown)" experimental_readout=pIC50 reported_result="6.00 to 7.00"
compound=CCN1CCC(COc2ccc3c(c2)OCCN(C[C@H](O)CN2CCc4ccccc4C2)C3=O)CC1 experimental_readout=pIC50 reported_result="6.00 to 7.00"

Next up:
I have this compound here, CC(=O)N1CC[C@H](Oc2ccc3c(c2)OCCN(C[C@H](O)CN2CCc4ccccc4C2)C3=O)C1 , and I need its recorded pIC50.
6.00 to 7.00

---

# assay-target: PRMT5-MEP50 enzyme complex (Homo sapiens (Human))
# method-notes: PRMT5 enzyme activity in vitro assay (methylation of histone H4R3, ELISA absorbance at 450 nm)
# run-conditions: SAM, histone H4 peptide, room temperature 2 hours, 8 points from 10 μM to 0.128 nM
Structures can show the parent of a compound that is named as a salt.
# IC50 annotations

Some solved entries appear below for comparison.
compound="CC1CC(Oc2ccc3c(c2)N(C)CCN(C[C@H](O)CN2CCc4ccccc4C2)C3=O)CCN1 (stereo partly drawn) [Example 138, dihydrochloride]" reported_result="100 to 1000 nM"
compound="CCN1CCOC(COc2ccc3c(c2)OCCN(C[C@H](O)CN2CCc4ccccc4C2)C3=O)C1 (stereo partly drawn) [Example 105]" reported_result="100 to 1000 nM"
compound="CNCC#Cc1ccc2c(c1)OCCN(C[C@H](O)CN1CCc3ccccc3C1)C2=O [Example 229]" reported_result="100 to 1000 nM"
compound="CC1CN(Cc2ccc3c(c2)OCCN(C[C@H](O)CN2CCc4ccccc4C2)C3=O)CCO1 (stereo partly drawn) [Example 30]" reported_result="1 to 100 nM"
compound="CN1CCN(C[C@H](O)CN2CCc3ccccc3C2)C(=O)c2ccc(CCC(F)(F)F)cc21 [Example 116]" reported_result="100 to 1000 nM"
compound="O=C1c2ccc(OC3CCN(CCO)CC3F)cc2OCCN1C[C@H](O)CN1CCc2ccccc2C1 (stereo partly drawn) [Example 208]" reported_result="100 to 1000 nM"
compound="CN1CCCC(COc2ccc3c(c2)OCCN(C[C@H](O)CN2CCc4ccccc4C2)C3=O)C1 (stereo partly drawn) [Example 107]" reported_result="1 to 100 nM"
compound="O=C1c2ccc(CN3CCCCC3CO)cc2OCCN1C[C@H](O)CN1CCc2ccccc2C1 (stereo partly drawn) [Example 41]" reported_result="100 to 1000 nM"

I have this compound here, O=C1c2ccc(OCC3CCCCO3)cc2OCCN1C[C@H](O)CN1CCc2ccccc2C1 (stereo partly drawn) [Example 65] , and I need its recorded IC50.
100 to 1000 nM

Again, but for CN1CCN(C[C@H](O)CN2CCc3ccccc3C2)C(=O)c2ccc(OC3CCN(C4CCC4)CC3)cc21 [Example 127]
1 to 100 nM

Again, but for CC1CN(C(=O)c2ccc3c(c2)OCCN(C[C@H](O)CN2CCc4ccccc4C2)C3=O)CC(C)O1 (stereo partly drawn) [Example 187]
100 to 1000 nM

Again, but for CC(=O)N1CC(Oc2ccc3c(c2)O[C@H](C)CN(C[C@H](O)CN2CCc4ccccc4C2)C3=O)C1 [Example 142]
1 to 100 nM

Values from patent US11111237B2
